Reference for the values: patent US20190060340A1

# Tested on: R3X nonsense mutation (a premature UGA C stop codon) of the PCDH15 gene
# assay method text: In vitro suppression and translation, pDB650-R3X reporter plasmid in rabbit reticulocyte lysate coupled transcription/translation system
# Assay type: biochemical, human
# measurement conditions: total protein relative to no compound; at Conc. of maximal suppression
Provide the recorded Trans. level (%) for the entries that follow.
One number for each entry, in %.

Completed entries (count: 3):
compound: NC1C[C@@H](N)[C@@H](O[C@@H]2O[C@H](CO)[C@H](O)C2O)[C@@H](O)[C@@H]1O[C@H]1OC(CO)[C@@H](O)[C@H](O)[C@@H]1N (some centres unmarked) [Compound 4]
units of measure: %
Trans. level (%): 74
//
compound: NC[C@H]1O[C@@H](OC2C(O)[C@H](O[C@H]3OC(CO)[C@@H](O)C(O)C3N)C(N)C[C@H]2N)C(O)C1O (some centres unmarked) [Compound 5]
units of measure: %
Trans. level (%): 75
//
compound: NC[C@H]1O[C@@H](OC2C(N)[C@@H](O[C@@H]3C(N)C[C@@H](N)C(O)C3O)OC(CO)[C@H]2O)C(O)C1O (some centres unmarked) [Compound 7]
units of measure: %
Trans. level (%): 98

Batch lookup, Trans. level (%) per entry.
1. NC1CC(N)[C@@H](O[C@H]2OC(CO)[C@@H](O)C(O)C2N)C(O)C1O (some centres unmarked) [Compound 1, Paromamine]
2. NC1C[C@@H](N)[C@@H](O)[C@@H](O[C@@H]2O[C@H](CO)[C@H](O)C2O)[C@@H]1O[C@H]1OC(CO)[C@@H](O)[C@H](O)[C@@H]1N (some centres unmarked) [Compound 2]
3. NC1C(N)[C@H](O)C(CO)O[C@@H]1O[C@@H]1C(N)C[C@@H](N)C(O)C1O (some centres unmarked) [Compound 8]
4. NC1C(OCOC2C(N)[C@H](O[C@H]3C(N)C[C@H](N)C(O)C3O)OC(CO)[C@@H]2O)[C@H](O)C(CO)O[C@@H]1O[C@@H]1C(N)C[C@@H](N)C(O)C1O (some centres unmarked) [Compound 9]

1. 74
2. 100
3. 71
4. 22

----------
# assay method text: Cell toxicity assay (XTT cell proliferation)
# Assay type: cell-based
# measurement conditions: dog
measure: CC50 at 48 h (µg/mL)
Give bare numbers, in µg/mL.

Can you share its CC50 at 48 h? I mean this molecule: NC[C@@H]1O[C@H](O[C@H]2[C@@H](O)[C@H](O[C@@H]3[C@@H](O)[C@H](N)C[C@H](N)[C@H]3O[C@H]3O[C@H](CO)[C@@H](O)[C@H](O)[C@H]3N)O[C@@H]2CO)[C@H](N)[C@@H](O)[C@@H]1O [paromomycin, reference compound]
1000

----------
# assay method text: Cell toxicity assay (XTT cell proliferation)
# Assay type: cell-based
# measurement conditions: human, HEK-293 cells; 48 hours; read-out: LC50 HEK293
measure: CC50 at 48 h (µg/mL)
Give bare numbers, in µg/mL.

Can you share its CC50 at 48 h? I mean this compound: NC[C@H]1O[C@@H](O[C@@H]2[C@@H](O)[C@H](N)C[C@H](N)[C@H]2O[C@H]2O[C@H](CO)[C@@H](O)[C@H](O)[C@H]2N)[C@H](O)[C@@H]1O
4820

----------
# assay method text: Cell toxicity assay (XTT cell proliferation)
# Assay type: cell-based
# measurement conditions: dog, MDCK cells; 48 hours; read-out: LC50 MDCK
measure: CC50 at 48 h (µg/mL)
Give bare numbers, in µg/mL.

Can you share its CC50 at 48 h? I mean this compound: NC[C@H]1O[C@@H](O[C@@H]2[C@@H](O)[C@H](N)C[C@H](N)[C@H]2O[C@H]2O[C@H](CO)[C@@H](O)[C@H](O)[C@H]2N)[C@H](O)[C@@H]1O
7530

----------
# assay method text: Cell toxicity assay (XTT cell proliferation)
# Format: cell-based
# measurement conditions: monkey, COS-7 cells; 48 hours; read-out: LC50 COS-7
measure: CC50 at 48 h (µg/mL)
Answers are plain numbers, in µg/mL.

Can you share its CC50 at 48 h? I mean this molecule: NC[C@H]1O[C@@H](O[C@@H]2[C@@H](O)[C@H](N)C[C@H](N)[C@H]2O[C@H]2O[C@H](CO)[C@@H](O)[C@H](O)[C@H]2N)[C@H](O)[C@@H]1O
7030

----------
Provide the recorded Conc. (μM) at which maximum suppression level was achieved for the entries that follow.
# System: original p2Luc plasmid containing a TGA C nonsense mutation
# assay method text: Dual luciferase in vitro transcription/translation assay
# Type: biochemical
# measurement conditions: dual luciferase in vitro system, all constructs of Table 21
Could you write the number and then its unit?

compound: NC[C@@H]1O[C@H](O[C@H]2[C@@H](O)[C@H](O[C@@H]3[C@@H](O)[C@H](N)C[C@H](N)[C@H]3O[C@H]3O[C@H](CO)[C@@H](O)[C@H](O)[C@H]3N)O[C@@H]2CO)[C@H](N)[C@@H](O)[C@@H]1O [paromomycin, reference compound]
observed value: 42 µM
//
compound: NC1CC(N)[C@@H](O[C@H]2OC(CO)[C@@H](O)C(O)C2N)C(O)C1O (stereo partly shown)
observed value: 490 µM
//
compound: NC[C@H]1O[C@@H](O[C@@H]2[C@@H](O)[C@H](N)C[C@H](N)[C@H]2O[C@H]2O[C@H](CO)[C@@H](O)[C@H](O)[C@H]2N)[C@H](O)[C@@H]1O
observed value: 107 µM

Then this compound:
Provide the documented Conc. (μM) at which maximum suppression level was achieved with original p2Luc plasmid containing a TGA C nonsense mutation as the system for NCC[C@H](O)C(=O)N[C@@H]1CC(N)[C@@H](O[C@H]2OC(CO)[C@@H](O)C(O)C2N)C(O[C@@H]2O[C@H](CN)C(O)C2O)C1O (stereo partly shown)
46 µM

----------
# assay method text: Cell toxicity assay (XTT cell proliferation)
# Format: cell-based
# measurement conditions: human
measure: CC50 at 48 h (µg/mL)
Numbers only, in µg/mL.

Can you share its CC50 at 48 h? I mean this molecule: NC[C@@H]1O[C@H](O[C@H]2[C@@H](O)[C@H](O[C@@H]3[C@@H](O)[C@H](N)C[C@H](N)[C@H]3O[C@H]3O[C@H](CO)[C@@H](O)[C@H](O)[C@H]3N)O[C@@H]2CO)[C@H](N)[C@@H](O)[C@@H]1O [paromomycin, reference compound]
770

----------
# Test system: R3X (PCDH15, Usher Syndrome)
# assay method text: Dual luciferase in vitro transcription/translation assay
# Assay type: biochemical, human
measure: Maximum in vitro suppression (%) R3X
Numbers only, in %.

Completed entries (count: 3):
compound: NCC[C@H](O)C(=O)N[C@@H]1CC(N)[C@@H](O[C@H]2OC(CO)[C@@H](O)C(O)C2N)C(O[C@@H]2O[C@H](CN)C(O)C2O)C1O (stereo partly shown)
units of measure: %
Maximum in vitro suppression (%) R3X: 29.2
--
compound: NC[C@@H]1O[C@H](O[C@H]2[C@@H](O)[C@H](O[C@@H]3[C@@H](O)[C@H](N)C[C@H](N)[C@H]3O[C@H]3O[C@H](CO)[C@@H](O)[C@H](O)[C@H]3N)O[C@@H]2CO)[C@H](N)[C@@H](O)[C@@H]1O [paromomycin, reference compound]
units of measure: %
Maximum in vitro suppression (%) R3X: 9.4
--
compound: NC1CC(N)[C@@H](O[C@H]2OC(CO)[C@@H](O)C(O)C2N)C(O)C1O (stereo partly shown)
units of measure: %
Maximum in vitro suppression (%) R3X: 0.6

Then this compound:
Can you share its Maximum in vitro suppression (%) R3X? I mean this compound: NC[C@H]1O[C@@H](O[C@@H]2[C@@H](O)[C@H](N)C[C@H](N)[C@H]2O[C@H]2O[C@H](CO)[C@@H](O)[C@H](O)[C@H]2N)[C@H](O)[C@@H]1O
2.9

----------
Provide the recorded Maximum in vitro suppression (%) UGAC for the entries that follow.
# Test system: original p2Luc plasmid containing a TGA C nonsense mutation
# assay method text: Dual luciferase in vitro transcription/translation assay
# Assay type: biochemical
# measurement conditions: p2luc
# Excerpt: DNA fragments derived from the subsequent genes, including the tested stop mutation or the corresponding wild-type codon, and four upstream and downstream flanking codons (except for p.R3X constructs, in which there are only two upstream PCDH15-flanking codons) were cloned into p2Luc plasmid between renilla and firefly luciferase genes as described previously. […]
Numbers only, in %.

Completed entries (count: 3):
molecule: NC[C@@H]1O[C@H](O[C@H]2[C@@H](O)[C@H](O[C@@H]3[C@@H](O)[C@H](N)C[C@H](N)[C@H]3O[C@H]3O[C@H](CO)[C@@H](O)[C@H](O)[C@H]3N)O[C@@H]2CO)[C@H](N)[C@@H](O)[C@@H]1O [paromomycin, reference compound]
Maximum in vitro suppression (%) UGAC: 7.8
//
molecule: NC[C@H]1O[C@@H](O[C@@H]2[C@@H](O)[C@H](N)C[C@H](N)[C@H]2O[C@H]2O[C@H](CO)[C@@H](O)[C@H](O)[C@H]2N)[C@H](O)[C@@H]1O [Compound 3]
Maximum in vitro suppression (%) UGAC: 4.8
//
molecule: NC1CC(N)[C@@H](O[C@H]2OC(CO)[C@@H](O)C(O)C2N)C(O)C1O (stereo partly shown) [Compound 1, Paromamine]
Maximum in vitro suppression (%) UGAC: 1.1

Then this molecule:
Can you share its Maximum in vitro suppression (%) UGAC? I mean this molecule: NCC[C@H](O)C(=O)N[C@@H]1CC(N)[C@@H](O[C@H]2OC(CO)[C@@H](O)C(O)C2N)C(O[C@@H]2O[C@H](CN)C(O)C2O)C1O (stereo partly shown) [Compound 37]
18.4
